The measurements presented in this section are drawn from ChEMBL document CHEMBL3885881.

Give LIPASE for every item shown.
Species on record: Rattus norvegicus
testName: DrugMatrix - Regimen: Daily Repeat
Format: toxicity, organism-based, Sprague-Dawley
Set-up: regimen Daily Repeat, gender Male, age 6-8 weeks
testSettings: in vivo, po, 0 mg/kg, 120 h, tissue Plasma, route oral GAVAGE, dose level Control, time 5 day, vehicle 100 % WATER
Numbers only; they are read as u/L.

I have this compound here, C[C@H](CS)C(=O)N1CCC[C@H]1C(=O)O [CAPTOPRIL] , and I need its recorded LIPASE.
10.17

I have this compound here, CN(C)CCCN1c2ccccc2Sc2ccc(Cl)cc21 [CHLORPROMAZINE] , and I need its recorded LIPASE.
9.33

I have this compound here, c1ccc([C@H]2CN3CCSC3=N2)cc1 [LEVAMISOLE] , and I need its recorded LIPASE.
11.5

I have this compound here, CNNCc1ccc(C(=O)NC(C)C)cc1 [PROCARBAZINE] , and I need its recorded LIPASE.
9

I have this compound here, C=CCC1(C(C)CCC)C(=O)NC(=O)NC1=O (centres undefined) [SECOBARBITAL] , and I need its recorded LIPASE.
11.5

I have this compound here, N[C@@H](Cc1ccc(O)c(O)c1)C(=O)O [LEVODOPA] , and I need its recorded LIPASE.
10.5

I have this compound here, C[C@H]1c2cccc(O)c2C(=O)C2=C(O)[C@]3(O)C(=O)C(C(N)=O)=C(O)[C@@H](N(C)C)[C@@H]3[C@@H](O)[C@@H]21.O [DOXYCYCLINE] , and I need its recorded LIPASE.
10.5

I have this compound here, Clc1cccc(Cl)c1N=C1NCCN1 [CLONIDINE] , and I need its recorded LIPASE.
9.33

I have this compound here, NCCCCCC(=O)O [AMINOCAPROIC ACID] , and I need its recorded LIPASE.
9.17

I have this compound here, CC(O)CO (centres undefined) [PROPYLENE GLYCOL] , and I need its recorded LIPASE.
9.17

I have this compound here, Cc1onc(-c2ccccc2Cl)c1C(=O)N[C@@H]1C(=O)N2[C@@H]1SC(C)(C)[C@@H]2C(=O)O [CLOXACILLIN] , and I need its recorded LIPASE.
9.17

I have this compound here, Cn1cc[nH]c1=S [METHIMAZOLE] , and I need its recorded LIPASE.
9.5

I have this compound here, COc1cc2nc(N3CCN(C(=O)C4COc5ccccc5O4)CC3)nc(N)c2cc1OC (centres undefined) [DOXAZOSIN] , and I need its recorded LIPASE.
10.5

I have this compound here, C[C@](N)(Cc1ccc(O)c(O)c1)C(=O)O [METHYLDOPA] , and I need its recorded LIPASE.
10.17

----------
Species on record: Rattus norvegicus
testName: DrugMatrix - Regimen: Daily Repeat
Format: toxicity, organism-based, Sprague-Dawley
Set-up: regimen Daily Repeat, gender Male, age 6-8 weeks
testSettings: in vivo, po, 0 mg/kg, 72 h, tissue Plasma, route oral GAVAGE, dose level Control, time 3 day, vehicle .5 % CMC
Give TOTAL PROTEIN for every item shown.
Units required after the number.

I have this compound here, `CCCCc1oc2ccccc2c1C(=O)c1cc(I)c(OCCN(CC)CC)c(I)c1` , and I need its recorded TOTAL PROTEIN.
6.28 G/DL

I have this compound here, `OCCN(CCO)c1nc(N2CCCCC2)c2nc(N(CCO)CCO)nc(N3CCCCC3)c2n1` , and I need its recorded TOTAL PROTEIN.
6.35 G/DL

I have this compound here, `CCn1cc(C(=O)O)c(=O)c2cc(F)c(N3CCNCC3)cc21` , and I need its recorded TOTAL PROTEIN.
5.77 G/DL

I have this compound here, `CCOP(=S)(OCC)Oc1nc(Cl)c(Cl)cc1Cl` , and I need its recorded TOTAL PROTEIN.
6.1 G/DL

I have this compound here, `ClC(Cl)Br` , and I need its recorded TOTAL PROTEIN.
5.88 G/DL

I have this compound here, CCCN1C[C@H](CSC)C[C@@H]2c3cccc4[nH]cc(c34)C[C@H]21 [PERGOLIDE] , and I need its recorded TOTAL PROTEIN.
5.98 G/DL

I have this compound here, `Cc1ccc(/N=C/N(C)/C=N/c2ccc(C)cc2C)c(C)c1` , and I need its recorded TOTAL PROTEIN.
5.77 G/DL

I have this compound here, `N=C(N)NCCN1CCCCCCC1` , and I need its recorded TOTAL PROTEIN.
6.35 G/DL

I have this compound here, `O=C(CCCN1CC=C(n2c(=O)[nH]c3ccccc32)CC1)c1ccc(F)cc1` , and I need its recorded TOTAL PROTEIN.
6.85 G/DL

I have this compound here, `Cc1nc2n(c(=O)c1CCN1CCC(c3noc4cc(F)ccc34)CC1)CCCC2` , and I need its recorded TOTAL PROTEIN.
6.28 G/DL

I have this compound here, `Nc1ccn([C@H]2CC[C@@H](CO)O2)c(=O)n1` , and I need its recorded TOTAL PROTEIN.
6.3 G/DL

I have this compound here, CC1CC(OC(=O)C(O)c2ccccc2)CC(C)(C)C1 (centres undefined) [CYCLANDELATE] , and I need its recorded TOTAL PROTEIN.
6.35 G/DL

I have this compound here, `Cc1ccc2cc3c(ccc4ccccc43)c3c2c1CC3` , and I need its recorded TOTAL PROTEIN.
6.18 G/DL

I have this compound here, `CN1CCN(CCCN2c3ccccc3Sc3ccc(Cl)cc32)CC1` , and I need its recorded TOTAL PROTEIN.
5.95 G/DL

I have this compound here, `ClC(Br)Br` , and I need its recorded TOTAL PROTEIN.
5.88 G/DL

I have this compound here, `CC(C)(C)NC(=O)[C@@H]1C[C@@H]2CCCC[C@@H]2CN1C[C@@H](O)[C@H](Cc1ccccc1)NC(=O)[C@H](CC(N)=O)NC(=O)c1ccc2ccccc2n1` , and I need its recorded TOTAL PROTEIN.
5.98 G/DL

I have this compound here, NC1=NC(=O)C(c2ccccc2)O1 (centres undefined) , and I need its recorded TOTAL PROTEIN.
5.93 G/DL

I have this compound here, `COc1nc(C)nc(Cl)c1N=C1NCCN1` , and I need its recorded TOTAL PROTEIN.
5.82 G/DL

I have this compound here, C1CCC(C(CC2CCCCN2)C2CCCCC2)CC1 (centres undefined) , and I need its recorded TOTAL PROTEIN.
5.93 G/DL

----------
Species: Rattus norvegicus
testName: DrugMatrix - Regimen: Daily Repeat
Format: toxicity, organism-based, Sprague-Dawley
Design: regimen Daily Repeat, gender Male, age 6-8 weeks
testSettings: in vivo, po, 0 mg/kg, 72 h, tissue Plasma, route oral GAVAGE, dose level Control, time 3 day, […]
measurementKind: SODIUM (MEQ/L)
Numbers only; they are read as MEQ/L.

I have this molecule here, `CC(C)(Oc1ccc(Cl)cc1)C(=O)O` , and I need its recorded SODIUM.
142.9

I have this molecule here, `OC(Cn1cncn1)(Cn1cncn1)c1ccc(F)cc1F` , and I need its recorded SODIUM.
139.65

I have this molecule here, CC(C)C(=O)Nc1ccc([N+](=O)[O-])c(C(F)(F)F)c1 [FLUTAMIDE] , and I need its recorded SODIUM.
137.67

I have this molecule here, `O=NN(CCCl)C(=O)NC1CCCCC1` , and I need its recorded SODIUM.
140.53

I have this molecule here, Cc1oncc1C(=O)Nc1ccc(C(F)(F)F)cc1 [LEFLUNOMIDE] , and I need its recorded SODIUM.
141.03

I have this molecule here, `Cc1noc(NS(=O)(=O)c2ccc(N)cc2)c1C` , and I need its recorded SODIUM.
143.3

I have this molecule here, `O=C(O)CCCc1ccc(N(CCCl)CCCl)cc1` , and I need its recorded SODIUM.
139.65

I have this molecule here, `O=c1oc2ccccc2c(O)c1Cc1c(O)c2ccccc2oc1=O` , and I need its recorded SODIUM.
143.2

I have this molecule here, CCOC(=O)C1=C(COCCN)NC(C)=C(C(=O)OC)C1c1ccccc1Cl (centres undefined) , and I need its recorded SODIUM.
140.53

I have this molecule here, `C[C@H]1O[C@@H](O[C@H]2[C@@H](O)C[C@H](O[C@H]3[C@@H](O)C[C@H](O[C@H]4CC[C@@]5(C)[C@H](CC[C@@H]6[C@@H]5C[C@@H](O)[C@]5(C)[C@@H](C7=CC(=O)OC7)CC[C@]65O)C4)O[C@@H]3C)O[C@@H]2C)C[C@H](O)[C@@H]1O` , and I need its recorded SODIUM.
143.57

I have this molecule here, `Cc1ccc(-c2cc(C(F)(F)F)nn2-c2ccc(S(N)(=O)=O)cc2)cc1` , and I need its recorded SODIUM.
139.65

I have this molecule here, `C[C@@H]1CN(c2c(F)c(N)c3c(=O)c(C(=O)O)cn(C4CC4)c3c2F)C[C@H](C)N1` , and I need its recorded SODIUM.
140.53

I have this molecule here, CCC(C)n1ncn(-c2ccc(N3CCN(c4ccc(OCC5COC(Cn6cncn6)(c6ccc(Cl)cc6Cl)O5)cc4)CC3)cc2)c1=O (centres undefined) , and I need its recorded SODIUM.
139.65

I have this molecule here, `CN(C)c1nc(N(C)C)nc(N(C)C)n1` , and I need its recorded SODIUM.
140.53
